# Test system: LOX IMVI melanoma
# Experiment: NCI tumour cell line growth inhibition, 48 h; in the data active = GI50 below about 0.43 µM; inactive = the rest
Possible outcomes: active, inactive

COc1ccc2c(c1)CC[C@@H]1[C@@H]2CC[C@]2(C)c3c(cc(C(=O)c4ccccc4)c4sccc34)C[C@@H]12; inactive
CC(=O)O[C@@H]1CC(=O)O[C@@H]2C[C@@H](CC/C(Cl)=C/C/C=C\1C)O[C@@H]2CO; inactive
N#CC(C#N)=Cc1ccc(-c2ccc(-c3nc4ccccc4s3)cc2)s1; inactive
O=C1[C@H](c2ccccc2)C2c3ccccc3CCN12 (stereo not given in full); inactive
COc1ccc2c(c1)c(=O)oc1cc(OC/C(=N\O)c3ccc(F)cc3)ccc12; inactive
Cn1cc(-c2nc(-c3cn(C)c4ncccc34)cs2)c2cc(F)ccc21; inactive
CCOCC[P+](c1ccccc1)(c1ccccc1)c1ccccc1; inactive
N=c1c2c(=O)n3c(nc2nc2sc4ccc(Cl)cc4n12)-c1ccccc1Sc1ccccc1-3; inactive
COc1cc2c(/C=C3/C(=O)Nc4c3ccc3ccccc43)c(Cl)[nH]c2cc1C; active
COc1ccc(/C=C2\CCCC3=C2N=C2SC=NN2C3c2ccc(OC)c(OC)c2)cc1OC (stereo not given); inactive

###

Measured TGI accompanies every entry in the list below.
# System: OVCAR-8 ovarian
# Experiment: NCI tumour cell line growth inhibition, 48 h
Parameter Measured: TGI (µM)

COc1ccc2c(c1)N(CCC1CCCCN1C)c1ccccc1S2 (stereo not given); 30.9
Cc1ccc(S(=O)(=O)C2=C3C(=C(c4ccccc4)c4ccccc43)CN(S(=O)(=O)c3ccc(C)cc3)C2)cc1; 38.1
C(#Cc1ccccc1C#Cc1ccccn1)c1ccc(OCCCCCCOc2ccc(C#Cc3ccccc3C#Cc3ccccn3)cc2)cc1; 14.6

###

# System: A498 renal
# Experiment: NCI tumour cell line growth inhibition, 48 h
Parameter Measured: GI50

CCCNNC(=O)c1ccc(CNC(=O)/C=C/c2ccccc2)cc1; 123 nM
O=C(Nc1cccc(-n2cc(-c3ccncc3)c(-c3ccc(O)c(Cl)c3)n2)c1)Nc1ccc(Cl)c(C(F)(F)F)c1; 2470 nM
O=C(O)c1cn(C2CC2)c2cc(N3CCN(C(=O)Nc4nc(-c5ccc(Cl)cc5)cs4)CC3)c(F)cc2c1=O; 1470 nM
COc1ccc2cc(C(=O)/C=C/c3ccccc3OC)ccc2c1; 6450 nM
Nc1nn(C(=O)Nc2ccc(Cc3ccccc3)cc2)c2ccccc12; 16700 nM

###

# Tested on: HCT-15 colon
# Experiment: NCI tumour cell line growth inhibition, 48 h; in the data active = GI50 below about 0.43 µM; inactive = the rest
Possible outcomes: active, inactive

CN(C)CCOc1cccc(NC2=C(Cl)C(=O)C(Nc3cccc(OCCN(C)C)c3)=C(Cl)C2=O)c1; active
COc1cc2c3c(n(CCCN4CCOCC4)c(=O)c2cc1OC)-c1cc2c(cc1C3=O)OCO2; inactive
CSc1ccc2c(c1)C(=O)c1c-2n(CCCN=[N+]=[N-])c(=O)c2cc([N+](=O)[O-])ccc12; inactive
CCOC(=O)c1c2c(n3cccc(F)c13)C(=O)c1ncccc1C2=O; active
COC(=O)/C(Br)=C/c1c[nH]c2ccc(Br)cc12; inactive

###

Measured TGI accompanies every entry in the list below.
# System: MOLT-4 leukemia
# Experiment: NCI tumour cell line growth inhibition, 48 h
Parameter Measured: TGI

O=C1CSc2ccncc2N1; > 100 µM
COC(=O)[C@]1(C)CCC[C@]2(C)C3CC4OOC3(C=C4C(C)C)CCC21 (stereo partly specified); 49.8 µM
CCC(C)(C)c1ccc(Oc2cccc(C(=O)O)c2)cc1; 70.7 µM
O=C(NO)c1ccc(OCc2ccccc2)cc1; > 100 µM
N#C/C(N)=C(\C#N)N=CNc1ccccc1N; > 100 µM
FC(F)(F)c1ccccc1C=NC12CC3CC(CC(C3)C1)C2; > 100 µM

###

# Tested on: OVCAR-8 ovarian
# Experiment: NCI tumour cell line growth inhibition, 48 h
Measured TGI accompanies every entry in the list below.
Parameter Measured: TGI

CC(C)(C)C1=NN=C2c3ccccc3C(=O)C21 (stereo not given); > 100 µM
CCCC[Si](CCCC)(CCCC)O[C@@H](/C=C/C(=O)OCC)[C@H](Cc1ccccc1)O[Si](CCCC)(CCCC)CCCC; > 100 µM
OCCCNC(=S)Nc1ccc(-c2nc3ccccc3s2)cc1; 91.9 µM
COc1ccc(OC)c(/C=C/c2cnnc3ccccc23)c1; > 10 µM
O=c1[nH]c(C2CCCCC2)nc2cc(Cl)ccc12; > 100 µM
CC(C)[C@H](NC(=O)[C@@H](O)[C@H](N)Cc1ccccc1)C(=O)N[C@@H](Cc1ccccc1)C(=O)O; > 100 µM
COc1ccc(C2Oc3c(cccc3OC)C=C2[N+](=O)[O-])cc1 (stereo not given); 11.2 µM
COc1ccc(/C=C2\CCCC3=C2N=C2SC=NN2C3c2ccc(OC)c(OC)c2)cc1OC (stereo not given); > 100 µM
NS(=O)(=O)c1ccc(NCc2cnc3ccccc3c2)cc1; > 100 µM
CCOC(=O)c1cc(C2(OC)CCN(Cc3ccccc3)C2=O)c(-c2cc(C)no2)[nH]1 (stereo not given); > 100 µM

###

# Test system: XF 498 CNS
# Experiment: NCI tumour cell line growth inhibition, 48 h
Parameter Measured: TGI

O=C(Nc1ccc(Cl)cc1Cl)/C(Cl)=C1/Sc2ccccc2NC1=O; 40.5 µM
CCOC(=O)c1cc(Cl)ccc1OC(N)=O; > 100 µM
COC1=CC(=O)C2[C@H]3Cc4ccccc4[C@H]3C2(C)C1=O (some centres undefined); > 100 µM
COC(=O)c1cc(O)ccc1NC(=O)c1ccc(O)cc1; > 100 µM

###

Measured TGI accompanies every entry in the list below.
# Test system: MALME-3M melanoma
# Experiment: NCI tumour cell line growth inhibition, 48 h
Parameter Measured: TGI

CCOC(=O)c1nc2ccc(C(F)(F)F)cc2nc1Nc1ccc(OC)c(OC)c1; > 100 µM
Cc1cccc(C(O)c2ccccn2)c1O (configuration not stated); > 100 µM
NS(=O)(=O)c1ccc(NCc2cnc3ccccc3c2)cc1; > 100 µM
CO[C@H]1C[C@H](O[C@H]2CC[C@]3(C=O)[C@H]4CC[C@]5(C)[C@@H](C6=CC(=O)OC6)CC[C@]5(O)[C@@H]4CC[C@]3(O)C2)O[C@H](C)[C@H]1O[C@@H]1O[C@H](CO[C@@H]2O[C@H](CO)[C@@H](O)[C@H](O)[C@H]2O)[C@@H](O)[C@H](O)[C@H]1O; 0.243 µM
Cc1cc(-c2ccc(Cl)cc2)c(C#N)c(=S)n1C1OC(CO)C(O)C(O)C1O (configuration not stated); > 100 µM
CC1(c2nc3cc(Cl)c(Cl)cc3[nH]2)CCC(C(=O)O)C(C)(C)O1 (configuration not stated); > 100 µM
CC(=O)/C=C/c1ccc(N(C)Cc2ccc(C(C)(C)C)cc2)cc1; 284 µM

###

# Test system: COLO 205 colon
# Experiment: NCI tumour cell line growth inhibition, 48 h
Where a SMILES comes first, the peptide text is derived from it. [ ]: non-standard residue; d: D form. Orn = NCCC[CH](N)C(=O)O
Measured GI50 accompanies every entry in the list below.
Parameter Measured: GI50

O=C(Nc1cc(Cl)cc(Cl)c1)c1ccc(NC2=C(Cl)C(=O)N(Cc3ccccc3)C2=O)cc1; 28.6 µM
COc1ccc2cc(C(=O)/C=C/c3ccccc3OC)ccc2c1; 3.56 µM
CC(C)CC1NC(=O)C(CCCN)NC(=O)C(C(C)C)NC(=O)C2CCCN2C(=O)C(Cc2ccccc2)NC(=O)C(CC(C)C)NC(=O)C(CCCN)NC(=O)C(C(C)C)NC(=O)C2CCCN2C(=O)C(Cc2ccccc2)NC1=O (stereo unspecified) (cyclo(FPV[Orn]LFPV[Orn]L); configuration not given here); < 0.00325 µM
COc1ccc(C2SC(C)C(=O)N2NC(=O)C(O)c2ccccc2)cc1 (stereo unspecified); > 100 µM
CCN1CCN(Cc2ccc3cc(C(=O)Nc4cc(NC(=O)c5ccc6c(c5)OCCO6)ccc4F)ccc3n2)CC1; 0.0553 µM
COc1cccc(-c2cc(NCc3ccc4c(c3)OCO4)nc(N)n2)c1; 0.0466 µM
COc1ccc2oc(-c3ccc(Cl)cc3)c(N3CCN(C)CC3)c2c1; 1.68 µM
OCCCNC(=S)Nc1ccc(-c2nc3ccccc3s2)cc1; 30 µM
COc1ccc(-c2oncc2-c2cc(OC)c3c(c2)OCO3)cc1; 2.8 µM
Cc1ccc(S(=O)(=O)C2=C3C(=C(c4ccccc4)c4ccccc43)CN(S(=O)(=O)c3ccc(C)cc3)C2)cc1; 14.9 µM
CSc1ccc2c(c1)C(=O)c1c-2n(CCCN=[N+]=[N-])c(=O)c2cc([N+](=O)[O-])ccc12; > 23.7 µM
Cc1cccc2c(=O)c3c(sc12)c(NCCN)nc1ccccc13; 0.826 µM
Cc1cc(Cl)ccc1Nc1nc(C(F)(F)F)ccc1C(=O)N/N=C/c1ccc(F)cc1; 1.61 µM
Cc1cc(Cl)ccc1Nc1nc(C(F)(F)F)ccc1C(=O)N/N=C/c1c(Cl)cccc1Cl; 0.358 µM
COc1ccc2c(c1)c(=O)oc1cc(OC/C(=N\O)c3ccc(F)cc3)ccc12; 15.6 µM
C#Cc1ccc(-n2c(/C=C/c3ccc4ccccc4n3)nc3ncccc3c2=O)cc1; 0.3 µM
